Reference source: patent US7939589B2

assay: Volatile organic content (VOC) of the neat amine, modified EPA Method 24; assay type: physicochemical; conditions: neat amine, 1 h at 105-110° C., percent weight loss
Readout Name: VOC (%)
Numeric answer only, unit % assumed.

Please review the entries below; each comes with its answer.
[[record]]
molecule = "CC(C)(N)CO [AMP, 2-Amino-2-methyl-1-propanol, reference compound]"
readout_name = "VOC"
reported = 100

[[record]]
molecule = "CCCCN(CCO)CCO [NBDA, N-Butyl-diethanolamine, reference compound]"
readout_name = "VOC"
reported = 21

[[record]]
molecule = "CC(C)(N)CNC(CO)(CO)CO [TA-AMP]"
readout_name = "VOC"
reported = 3.9

[[record]]
molecule = "CCC(N)(CO)CO [AEPD, 2-Amino-2-ethyl-1,3-propane-diol, reference compound]"
readout_name = "VOC"
reported = 19


-- ask Return reported VOC; argument: NC1(CNC(CO)(CO)CO)CCCCC1 [TA-ACyHM]
-- reply 3.8
